Taken from patent US20250009745A1.

Biological target: CDK4 (Homo sapiens)
Construct: purchased Carna Company
Assay: CDK enzymology experiment in vitro, capillary mobility shift assay (MSA)
Assay type: biochemical
Settings: read-out: CDK4 (nM) inhibitory IC50
IC50 values by entry

Reference set, count: 8
> print(dat)
                                   compound   valuemeasured
1  O=S(=O)(c1ccc(N2CC[C@H](O)C2)cc1)N1CCC(Nc2ncc(C(F)(F)F)c(O[C@H]3CCOC3)n2)CC1   0.5 to 2.5 nM
2  Cn1cc(S(=O)(=O)N2CCC(Nc3ncc(C#N)c(N[C@H]4CCC[C@@H]4O)n3)CC2)cn1  100 to 1000 nM
3  Cn1cc(S(=O)(=O)N2CCC(Nc3ncc(C#N)c(O[C@@H]4CCC[C@H]4O)n3)CC2)cn1 (single isomer, unassigned) [Compound 67]     10 to 50 nM
4  O=S(=O)(c1cnn(C2CCNCC2)c1)N1CCC(Nc2ncc(C(F)(F)F)c(O[C@H]3CCOC3)n2)CC1   0.5 to 2.5 nM
5  N#Cc1cnc(NC2CCN(S(=O)(=O)c3ccc(N4CCC(O)CC4)cc3)CC2)nc1NC1CCCC1   0.5 to 2.5 nM
6  Cn1cc(S(=O)(=O)N2CCC(Nc3ncc(C#N)c(N[C@H]4CC[C@@H](O)C4)n3)CC2)cn1 (racemic) [Example 11]     10 to 50 nM
7  Cn1cc(S(=O)(=O)N2CCC(Nc3ncc(C#N)c(O[C@@H]4CCOC4)n3)CC2)cn1    50 to 100 nM
8  Cn1cc(S(=O)(=O)N2CCC(Nc3ncc([N+](=O)[O-])c(NC4CCCC4)n3)CC2)cn1    2.5 to 10 nM

Now look at this one.
input: Item: Cn1cc(S(=O)(=O)N2CCC(Nc3ncc(C#N)c(O[C@H]4CC[C@@H](O)C4)n3)CC2)cn1 (relative stereo) Test system: CDK4 (Homo sapiens) Read-out: IC50 Value: ?
output: 10 to 50 nM

----------
Molecular target: CDK4 (Homo sapiens)
Construct: purchased Carna Company
Assay: CDK enzymology experiment in vitro, capillary mobility shift assay (MSA)
Format: biochemical
Details: read-out: CDK4 (nM) inhibitory IC50
quantityKind: IC50

> print(dat)
                                   compound   valuemeasured
1  C[C@H]1CNCCN1c1ccc(S(=O)(=O)N2CCC(Nc3ncc(C(F)(F)F)c(O[C@H]4CCOC4)n3)CC2)cc1 [Compound 198]   0.5 to 2.5 nM
2  CO[C@@H]1CCC[C@H]1Nc1nc(NC2CCN(S(=O)(=O)c3cnn(C)c3)CC2)ncc1C#N [Example 14]  100 to 1000 nM
3  Cn1cc(-c2ccc(S(=O)(=O)N3CCC(Nc4ncc(C#N)c(N[C@@H]5CC[C@H](O)C5)n4)CC3)cc2)cn1 (single isomer, unassigned) [Compound 87]   0.5 to 2.5 nM
4  Cn1cc(S(=O)(=O)N2CCC(Nc3ncc(C#N)c(CC4CCCC4)n3)CC2)cn1 [Example 10]     10 to 50 nM

Turning to the following compound.
input: Data request, read-out IC50, for Cn1cc(-c2ccc(S(=O)(=O)N3CCC(Nc4ncc(C#N)c(N[C@@H]5CCC[C@@H]5O)n4)CC3)cc2)cn1 [Compound 61]
output: 2.5 to 10 nM

----------
Each record here notes measured IC50.
Target: CDK7 (Homo sapiens)
Construct: purchased Carna Company
Sequence (P50613 whole entry): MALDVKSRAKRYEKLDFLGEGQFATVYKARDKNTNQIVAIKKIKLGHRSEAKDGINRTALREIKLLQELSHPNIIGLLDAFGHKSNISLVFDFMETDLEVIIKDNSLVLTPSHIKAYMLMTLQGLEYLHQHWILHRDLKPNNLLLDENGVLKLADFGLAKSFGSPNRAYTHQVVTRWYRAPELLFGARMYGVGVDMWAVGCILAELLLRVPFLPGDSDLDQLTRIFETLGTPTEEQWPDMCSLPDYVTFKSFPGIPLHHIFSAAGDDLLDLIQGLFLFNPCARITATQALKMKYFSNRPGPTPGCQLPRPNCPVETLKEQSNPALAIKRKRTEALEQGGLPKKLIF
Sequence (P51946 whole entry partner): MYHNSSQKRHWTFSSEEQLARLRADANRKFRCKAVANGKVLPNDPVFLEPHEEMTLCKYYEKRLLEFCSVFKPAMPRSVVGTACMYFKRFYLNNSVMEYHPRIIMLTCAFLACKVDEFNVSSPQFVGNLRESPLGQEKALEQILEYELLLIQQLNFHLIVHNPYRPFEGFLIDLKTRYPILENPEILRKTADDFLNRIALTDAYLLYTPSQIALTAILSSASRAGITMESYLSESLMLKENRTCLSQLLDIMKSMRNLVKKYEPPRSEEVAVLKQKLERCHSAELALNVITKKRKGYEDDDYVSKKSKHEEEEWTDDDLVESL
Sequence (P51948 whole entry partner): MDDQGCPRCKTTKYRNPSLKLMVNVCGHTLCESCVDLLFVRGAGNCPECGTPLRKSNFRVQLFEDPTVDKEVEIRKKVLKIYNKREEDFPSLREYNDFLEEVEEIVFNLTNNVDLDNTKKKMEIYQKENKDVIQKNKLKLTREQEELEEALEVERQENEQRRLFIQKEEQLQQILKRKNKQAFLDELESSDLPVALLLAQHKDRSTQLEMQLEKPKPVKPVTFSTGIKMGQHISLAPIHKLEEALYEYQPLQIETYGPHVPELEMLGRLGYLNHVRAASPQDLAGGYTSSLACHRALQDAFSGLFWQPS
Test: CDK enzymology experiment in vitro, capillary mobility shift assay (MSA)
Type: biochemical
Settings: read-out: CDK7 (nM) inhibitory IC50

> print(dat)
                                   compound             testedon   valuemeasured
1  O=S(=O)(c1ccc([C@H]2CCNC2)cc1)N1CCC(Nc2ncc(C(F)(F)F)c(O[C@H]3CCOC3)n2)CC1 (single isomer, unassigned)  CDK7 (Homo sapiens)     10 to 50 nM
2  CS(=O)(=O)N1CCC(Nc2ncc(C(F)(F)F)c(NC3CCCC3)n2)CC1  CDK7 (Homo sapiens)     10 to 50 nM
3  O=S(=O)(c1ccc(C2=CCNCC2)cc1)N1CCC(Nc2ncc(C(F)(F)F)c(O[C@H]3CCOC3)n2)CC1  CDK7 (Homo sapiens)    2.5 to 10 nM
4  Cn1cc(S(=O)(=O)N2CCC(Nc3ncc(C#N)c(NC4CCCC4)n3)CC2)cn1  CDK7 (Homo sapiens)  100 to 1000 nM
5  CN(C)CCN(c1nc(NC2CCN(S(=O)(=O)c3cnn(C)c3)CC2)ncc1C#N)C1CCCC1  CDK7 (Homo sapiens)  100 to 1000 nM
6  O=S(=O)(c1ccc(C2=CCNC2)cc1)N1CCC(Nc2ncc(C(F)(F)F)c(O[C@H]3CCOC3)n2)CC1  CDK7 (Homo sapiens)    2.5 to 10 nM

input: API: value(readout=IC50, system=CDK7 (Homo sapiens)) for record `O=S(=O)(c1ccc(N2CC3(CNC3)C2)cc1)N1CCC(Nc2ncc(C(F)(F)F)c(O[C@H]3CCOC3)n2)CC1`
output: 2.5 to 10 nM

input: Request - read-out IC50 | tested on CDK7 (Homo sapiens) | compound `O=S(=O)(c1cnn(CCO)c1)N1CCC(Nc2ncc(C(F)(F)F)c(O[C@H]3CCOC3)n2)CC1`
output: 10 to 50 nM

input: What value of IC50 on CDK7 (Homo sapiens) does `O=S(=O)(c1ccc(C2CNC2)cc1)N1CCC(Nc2ncc(C(F)(F)F)c(O[C@H]3CCOC3)n2)CC1` have?
output: 2.5 to 10 nM

input: // lookup IC50 | system=CDK7 (Homo sapiens) | key= `CN(C)C1CCN(c2ccc(S(=O)(=O)N3CCC(Nc4ncc(C(F)(F)F)c(O[C@H]5CCOC5)n4)CC3)cc2)CC1`
output: 10 to 50 nM

----------
Molecular target: CDK2 (Homo sapiens, UniProt P24941)
Construct: purchased Carna Company
Experiment: CDK enzymology experiment in vitro, capillary mobility shift assay (MSA)
Type: biochemical
Conditions: read-out: CDK2 (nM) inhibitory IC50
Let's look at some compounds and their measured IC50.

Worked cases, IC50 given:
> print(dat)
                                   compound                             testedon  valuemeasured
1  Cn1cc(S(=O)(=O)N2CCC(Nc3ncc(C#N)c(N[C@H]4CCOC4)n3)CC2)cn1 [Compound 44]  CDK2 (Homo sapiens, UniProt P24941)   2.5 to 10 nM
2  Cn1cc(-c2ccc(S(=O)(=O)N3CCC(Nc4ncc(C#N)c(N[C@H]5CC[C@@H](O)C5)n4)CC3)cc2)cn1 (single isomer, unassigned) [Compound 86]  CDK2 (Homo sapiens, UniProt P24941)       < 0.5 nM

Consider the record given below.
input: Consider the compound Cn1cc(S(=O)(=O)N2CCC(Nc3ncc(C#N)c(N[C@H]4CCC[C@H]4O)n3)CC2)cn1 [Compound 48] and give its measured IC50.
output: 2.5 to 10 nM

----------
# key: entry, value: IC50
Biological target: CDK4 (Homo sapiens, UniProt P11802)
Construct: purchased Carna Company
Sequence (P11802 whole entry): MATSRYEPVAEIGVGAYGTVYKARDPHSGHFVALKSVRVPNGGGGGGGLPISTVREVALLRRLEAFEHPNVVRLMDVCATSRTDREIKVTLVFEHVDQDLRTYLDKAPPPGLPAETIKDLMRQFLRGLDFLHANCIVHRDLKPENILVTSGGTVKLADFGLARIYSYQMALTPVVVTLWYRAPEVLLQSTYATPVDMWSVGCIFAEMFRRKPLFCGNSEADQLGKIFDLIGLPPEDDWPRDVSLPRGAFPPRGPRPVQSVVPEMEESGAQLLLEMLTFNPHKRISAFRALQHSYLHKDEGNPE
Sequence (P30281 whole entry partner): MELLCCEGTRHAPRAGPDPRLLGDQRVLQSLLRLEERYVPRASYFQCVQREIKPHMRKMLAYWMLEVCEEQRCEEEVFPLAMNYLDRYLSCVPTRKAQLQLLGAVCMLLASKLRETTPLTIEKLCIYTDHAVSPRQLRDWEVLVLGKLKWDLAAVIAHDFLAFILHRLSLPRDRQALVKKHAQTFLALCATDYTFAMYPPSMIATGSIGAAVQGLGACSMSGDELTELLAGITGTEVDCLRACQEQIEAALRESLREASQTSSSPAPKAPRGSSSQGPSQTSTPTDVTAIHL
Experiment: CDK enzymology experiment in vitro, capillary mobility shift assay (MSA)
Type: biochemical
Conditions: read-out: CDK4 (nM) inhibitory IC50

Below, 5 compounds whose answers are already recorded.
> print(dat)
                                   compound  valuemeasured
1  Cn1cc(-c2ccc(S(=O)(=O)N3CCC(Nc4ncc(C#N)c(N[C@@H]5CC[C@@H](O)C5)n4)CC3)cc2)cn1 (single isomer, unassigned)   2.5 to 10 nM
2  O=S(=O)(c1ccc(N2C3CCC2CNC3)cc1)N1CCC(Nc2ncc(C(F)(F)F)c(O[C@H]3CCOC3)n2)CC1  0.5 to 2.5 nM
3  CN1CCN(c2ccc(S(=O)(=O)N3CCC(Nc4ncc(C#N)c(NC5CCCC5)n4)CC3)cc2)CC1  0.5 to 2.5 nM
4  CS(=O)(=O)N1CCC(Nc2ncc(C(F)(F)F)c(NC3CCCC3)n2)CC1    10 to 50 nM
5  Cn1cc(-c2ccc(S(=O)(=O)N3CCC(Nc4cc(N[C@H]5CCOC5)c(C#N)cn4)CC3)cc2)cn1   2.5 to 10 nM

input: Which IC50 value is on record for Cn1cc(-c2ccc(S(=O)(=O)N3CCC(Nc4ncc(C#N)c(N[C@H]5CC[C@@H](O)C5)n4)CC3)cc2)cn1 (single isomer, unassigned) [Compound 86] ?
output: 0.5 to 2.5 nM

input: Entry under review: `Cn1cc(S(=O)(=O)N2CCC(Nc3ncc(C#N)c(OC4CCCC4)n3)CC2)cn1` . Reported IC50?
output: 2.5 to 10 nM

input: Entry under review: Cn1cc(S(=O)(=O)N2CCC(Nc3ncc(C#N)c(O[C@H]4CC[C@H](O)C4)n3)CC2)cn1 (single isomer, unassigned) [Compound 56] . Reported IC50?
output: 50 to 100 nM

input: Could you share which IC50 value was measured for `O=S(=O)([C@@H]1CCCNC1)N1CCC(Nc2ncc(C(F)(F)F)c(NC3CCCC3)n2)CC1` ?
output: 2.5 to 10 nM

input: Tell me the measured IC50 of `Cn1cc(S(=O)(=O)N2CCC(Nc3ncc(C#N)c(N[C@H]4CCC[C@H]4O)n3)CC2)cn1` , please.
output: 10 to 50 nM

input: Need IC50, item `CS(=O)(=O)N1CCC(Nc2ncc(C#N)c(-c3ccccc3)n2)CC1`
output: 10 to 50 nM

input: // returns reported IC50 for input `CN1CC[C@@H](Nc2nc(NC3CCN(S(=O)(=O)c4cnn(C)c4)CC3)ncc2C#N)C1`
output: 10 to 50 nM

input: Tell me the measured IC50 of `CN1CC=C(c2ccc(S(=O)(=O)N3CCC(Nc4ncc(C#N)c(NC5CCCC5)n4)CC3)cc2)CC1` , please.
output: 0.5 to 2.5 nM

input: IC50 lookup needed for O=S(=O)(c1ccc(N2CC3CNCC3C2)nc1)N1CCC(Nc2ncc(C(F)(F)F)c(O[C@H]3CCOC3)n2)CC1 (some centres unmarked) , thanks.
output: 0.5 to 2.5 nM

input: Dear colleague, I am looking for the recorded IC50 of the following compound: `C[C@H](CO)Nc1nc(NC2CCN(S(=O)(=O)c3cnn(C)c3)CC2)ncc1C#N`
output: 50 to 100 nM

input: Param item = O=S(=O)(c1ccc([C@H]2CCCNC2)cc1)N1CCC(Nc2ncc(C(F)(F)F)c(O[C@H]3CCOC3)n2)CC1 (single isomer, unassigned) ; retrieve measured IC50.
output: 0.5 to 2.5 nM

input: Fill in the blank: the reported IC50 of `N#Cc1cnc(NC2CCN(S(=O)(=O)c3ccccn3)CC2)nc1NC1CCCC1` is ____.
output: 2.5 to 10 nM

input: Requested field: IC50. Item: `Cn1cc(S(=O)(=O)N2CCC(Nc3ncc(C#N)c(NC4(C)CCCC4)n3)CC2)cn1`
output: 0.5 to 2.5 nM

input: Endpoint output: IC50 of Cn1cc(S(=O)(=O)N2CCC(Nc3ncc(C#N)c(O[C@@H]4CCC[C@H]4O)n3)CC2)cn1 (relative stereo) [Compound 68] . Value?
output: 10 to 50 nM

input: Fill blank: measured IC50 of the compound `Cn1cc(-c2ccc(S(=O)(=O)N3CCC(Nc4ncc(C#N)c(NC5CCCC5)n4)CC3)cc2)cn1` is ____.
output: 2.5 to 10 nM
